biological target: hTLR9 (Homo sapiens); test: HEK293-Blue-hTLR-9 cells assay (SEAP reporter, ODN2006 stimulation); assay type: cell-based; conditions: HEK293-Blue-hTLR9 cells, ODN2006, 20 hrs; 0.032 is the lowest tested concentration; read-out: HEK/hTLR9 IC50
Sequence (Q9NR96 26-1032): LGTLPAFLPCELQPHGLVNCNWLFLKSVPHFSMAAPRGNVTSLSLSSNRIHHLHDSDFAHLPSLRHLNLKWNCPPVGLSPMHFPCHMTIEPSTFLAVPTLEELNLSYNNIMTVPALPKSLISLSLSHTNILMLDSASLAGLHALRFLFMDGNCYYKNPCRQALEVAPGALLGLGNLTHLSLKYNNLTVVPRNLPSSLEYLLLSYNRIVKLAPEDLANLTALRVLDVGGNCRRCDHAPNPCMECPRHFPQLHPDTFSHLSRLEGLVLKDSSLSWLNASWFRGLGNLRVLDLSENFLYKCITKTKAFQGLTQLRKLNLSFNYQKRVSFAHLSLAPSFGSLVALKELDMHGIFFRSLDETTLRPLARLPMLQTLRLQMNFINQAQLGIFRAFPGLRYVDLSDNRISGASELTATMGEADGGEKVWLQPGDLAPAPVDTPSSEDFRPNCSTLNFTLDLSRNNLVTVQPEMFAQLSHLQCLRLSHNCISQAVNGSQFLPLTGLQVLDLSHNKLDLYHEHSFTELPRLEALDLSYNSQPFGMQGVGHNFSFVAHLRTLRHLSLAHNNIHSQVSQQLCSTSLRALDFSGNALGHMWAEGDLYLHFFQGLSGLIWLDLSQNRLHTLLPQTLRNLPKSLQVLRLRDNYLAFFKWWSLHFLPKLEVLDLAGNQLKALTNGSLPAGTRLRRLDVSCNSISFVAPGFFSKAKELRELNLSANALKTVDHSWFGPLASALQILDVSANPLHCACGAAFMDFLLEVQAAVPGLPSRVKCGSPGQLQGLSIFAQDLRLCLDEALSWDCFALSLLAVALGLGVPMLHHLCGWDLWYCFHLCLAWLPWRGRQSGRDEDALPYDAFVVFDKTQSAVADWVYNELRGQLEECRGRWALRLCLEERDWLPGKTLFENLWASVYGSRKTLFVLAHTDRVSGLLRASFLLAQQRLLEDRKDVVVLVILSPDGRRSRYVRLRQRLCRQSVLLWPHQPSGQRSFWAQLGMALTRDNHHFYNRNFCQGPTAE
# TRUE = IC50 below 0.06 µM (exclusive); FALSE = IC50 at/above 0.06 µM

COMPOUND	TARGET OR TEST SYSTEM	CATEGORY
C[C@@H]1CN(c2ccc(C#N)n3nccc23)C[C@H](CN2CCc3cnccc3C2)O1 [Example R1, reference compound]	hTLR9 (Homo sapiens)	FALSE
C[C@@H]1CN(c2ccc(C#N)c3nccnc23)C[C@H](CN2CCc3cc(N4CCNCC4)ccc3C2)O1 [Example 13]	hTLR9 (Homo sapiens)	TRUE
C[C@@H]1CN(c2ccc(C#N)n3nccc23)C[C@H](CN2Cc3ccc(C4CCNC4)cc3C2)O1 (stereo partly shown) [Example 9]	hTLR9 (Homo sapiens)	FALSE
C[C@@H]1CN(c2ccc(C#N)c3ncccc23)C[C@H](CN2Cc3ccc(N4CCNCC4)nc3C2)O1 [Example 80]	hTLR9 (Homo sapiens)	TRUE
C[C@@H]1CN(c2ccc(C#N)c3ncccc23)C[C@H](CN2Cc3ccc(N4CCNCC4)cc3C(O)C2)O1 (stereo partly shown) [Example 75]	hTLR9 (Homo sapiens)	TRUE
C[C@@H]1CN(c2ccc(C#N)n3nccc23)C[C@H](CN2Cc3ccc(N4CCNCC4)cc3C2)O1 [Example 4]	hTLR9 (Homo sapiens)	TRUE

Turning now to a further compound:
[in] Identify whether the compound C[C@@H]1CN(c2ccc(C#N)c3ncccc23)C[C@H](CN2CCc3nc(N4CCNCC4)ccc3C2)O1 [Example 79] records IC50 below 0.06 µM.
[out] TRUE

----------
target: hTLR7 (Homo sapiens, UniProt Q9NYK1); experiment: HEK293-Blue-hTLR-7 cells assay (SEAP reporter, R848 stimulation); assay type: cell-based; settings: HEK293-Blue-hTLR7 cells, R848, 20 hrs; 0.003 is the lowest tested concentration; read-out: HEK/hTLR7 IC50
Sequence (Q9NYK1 27-1049): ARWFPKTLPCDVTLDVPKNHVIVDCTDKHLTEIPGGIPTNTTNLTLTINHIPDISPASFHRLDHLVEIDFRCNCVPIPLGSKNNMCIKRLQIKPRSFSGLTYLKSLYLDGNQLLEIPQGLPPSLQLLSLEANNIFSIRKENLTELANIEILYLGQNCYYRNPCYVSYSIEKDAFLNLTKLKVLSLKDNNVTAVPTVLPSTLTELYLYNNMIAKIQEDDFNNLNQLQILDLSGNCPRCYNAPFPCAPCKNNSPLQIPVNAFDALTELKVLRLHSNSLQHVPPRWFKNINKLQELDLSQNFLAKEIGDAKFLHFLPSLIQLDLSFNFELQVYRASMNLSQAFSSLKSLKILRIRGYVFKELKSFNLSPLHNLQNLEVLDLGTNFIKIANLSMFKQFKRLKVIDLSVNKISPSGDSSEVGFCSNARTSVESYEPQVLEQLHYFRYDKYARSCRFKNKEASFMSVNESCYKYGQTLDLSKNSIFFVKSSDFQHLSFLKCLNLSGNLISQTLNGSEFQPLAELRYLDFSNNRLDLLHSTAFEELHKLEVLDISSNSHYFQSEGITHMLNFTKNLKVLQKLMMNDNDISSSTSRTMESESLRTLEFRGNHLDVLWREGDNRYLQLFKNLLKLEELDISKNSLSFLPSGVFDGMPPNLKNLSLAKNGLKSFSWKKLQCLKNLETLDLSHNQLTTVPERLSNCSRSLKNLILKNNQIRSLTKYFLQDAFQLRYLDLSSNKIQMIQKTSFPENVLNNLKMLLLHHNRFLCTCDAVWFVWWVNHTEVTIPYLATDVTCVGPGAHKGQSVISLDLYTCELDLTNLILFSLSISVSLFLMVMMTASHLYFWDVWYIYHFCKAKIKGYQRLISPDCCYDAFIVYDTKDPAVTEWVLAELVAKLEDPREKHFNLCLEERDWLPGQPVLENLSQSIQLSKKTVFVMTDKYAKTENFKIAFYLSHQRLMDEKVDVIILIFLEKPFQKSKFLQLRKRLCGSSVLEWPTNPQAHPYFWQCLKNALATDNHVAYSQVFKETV
As shown below, each of these compounds has a reported IC50 value.
Report the value in µM with no unit label.

[in] Can you look up the measured IC50 of C[C@@H]1CN(c2ccc(C#N)n3nccc23)C[C@H](CN2Cc3ccc(C4CCNCC4)cc3C2)O1 for me?
[out] 0.206

[in] Can you look up the measured IC50 of C[C@@H]1CN(c2ccc(C#N)c3nccnc23)C[C@H](CNCc2ccc(N3CCNCC3)cc2)O1 for me?
[out] 0.012

[in] Can you look up the measured IC50 of C[C@@H]1CN(c2ccc(C#N)n3nccc23)C[C@H](CN2Cc3cc(N4CCNCC4)cnc3C2)O1 for me?
[out] 0.068

[in] Can you look up the measured IC50 of CC1CN(c2ccc3c(c2)CN(C[C@H]2CN(c4ccc(C#N)c5nccnc45)C[C@@H](C)O2)C3)CCN1 (some centres unmarked) for me?
[out] 0.01

[in] Can you look up the measured IC50 of C[C@@H]1CN(c2ccc(C#N)c3ncccc23)C[C@H](CN2Cc3ccc(N4CC5COCC(C4)N5)cc3C2)O1 for me?
[out] 0.045

[in] Can you look up the measured IC50 of C[C@@H]1CN(c2ccc(C#N)c3nccnc23)C[C@H](CN2Cc3ccc(N4CCN[C@@H](C)C4)cc3C2)O1 for me?
[out] 0.006

[in] Can you look up the measured IC50 of CC1c2ccc(N3CCNCC3)cc2CN1C[C@H]1CN(c2ccc(C#N)c3ncccc23)C[C@@H](C)O1 (some centres unmarked) for me?
[out] 0.238

[in] Can you look up the measured IC50 of C[C@@H]1CN(c2ccc(C#N)c3ncccc23)C[C@H](CN2Cc3ccc(N4CCNCC4)cc3C2)O1 for me?
[out] 0.009

[in] Can you look up the measured IC50 of CC1CNCCN1c1ccc2c(c1)CN(C[C@H]1CN(c3ccc(C#N)c4ncccc34)C[C@@H](C)O1)C2 (some centres unmarked) for me?
[out] 0.011

[in] Can you look up the measured IC50 of C[C@@H]1CN(c2ccc(C#N)c3ncccc23)C[C@H](CN2Cc3ccc(N4CCNCC4)cc3C(O)C2)O1 (some centres unmarked) for me?
[out] 0.042

[in] Can you look up the measured IC50 of C[C@@H]1CN(c2ccc(C#N)c3ncccc23)C[C@H](CN2Cc3ccc(N4C5CCC4CNC5)cc3C2)O1 for me?
[out] 0.06

----------
target: hTLR9 (Homo sapiens); assay: HEK293-Blue-hTLR-9 cells assay (SEAP reporter, ODN2006 stimulation); assay type: cell-based; conditions: HEK293-Blue-hTLR9 cells, ODN2006, 20 hrs; 0.032 is the lowest tested concentration; read-out: HEK/hTLR9 IC50
MEASURE: pIC50
# pIC50 is unitless: minus log10 of the molar concentration; print number only

Answered cases to consult:
COMPOUND	pIC50
C[C@@H]1CN(c2ccc(C#N)c3ncccc23)C[C@H](CN2Cc3cnc(N4CCNCC4)nc3C2)O1 [Example 63]	6.92
C[C@@H]1CN(c2ccc(C#N)c3ncccc23)C[C@H](CN2Cc3ccc(N4CC5COCC(C4)N5)cc3C2)O1 [Example 72]	7.18
COCCN1CCN(c2ccc3c(c2)CN(C[C@H]2CN(c4ccc(C#N)c5nccnc45)C[C@@H](C)O2)C3)CC1 [Example 37]	6.59
C[C@@H]1CN(c2ccc(C#N)c3nccnc23)C[C@H](CN2Cc3ccc(N4CCNCC4)cc3C2)O1 [Example 12]	7.28
C[C@@H]1CN(c2ccc3c(c2)CN(C[C@H]2CN(c4ccc(C#N)c5nccnc45)C[C@@H](C)O2)C3)CCN1 [Example 65]	7.23
C[C@@H]1CN(c2ccc(C#N)n3nccc23)C[C@H](CNCc2ccc(N3CCNCC3)cc2)O1 [Example 16]	7.09
C[C@@H]1CN(c2ccc(C#N)c3ncccc23)C[C@H](CN2Cc3ccc(N4C5CNCC4COC5)cc3C2)O1 [Example 46]	7.12
C[C@@H]1CN(c2ccc(C#N)c3ncccc23)C[C@H](CN2Cc3cc(N4CCNCC4)cc(F)c3C2)O1 [Example 59]	7.18

[in] Can you look up the measured pIC50 of C[C@@H]1CN(c2ccc(C#N)c3nccnc23)C[C@H](CN2Cc3ccc(N4CCNC5(CC5)C4)cc3C2)O1 [Example 38] for me?
[out] 6.64

[in] Can you look up the measured pIC50 of C[C@@H]1CN(c2ccc(C#N)c3ncccc23)C[C@H](CN2Cc3ccc(N4CCNC[C@@H]4CO)cc3C2)O1 [Example 82] for me?
[out] 7.27

[in] Can you look up the measured pIC50 of CC1c2ccc(N3CCNCC3)cc2CN1C[C@H]1CN(c2ccc(C#N)c3ncccc23)C[C@@H](C)O1 (some centres unmarked) [Example 48] for me?
[out] 6.98

[in] Can you look up the measured pIC50 of C[C@@H]1CN(c2ccc(C#N)c3ncccc23)C[C@H](CN2Cc3ccc(N4CC5(CNC5)C4)cc3C2)O1 [Example 47] for me?
[out] 7.08

[in] Can you look up the measured pIC50 of C[C@@H]1CN(c2ccc(C#N)n3ncc(F)c23)C[C@H](CN2Cc3cc(N4CCNCC4)cnc3C2)O1 [Example 29] for me?
[out] 6.87

[in] Can you look up the measured pIC50 of C[C@@H]1CN(c2ccc(C#N)c3ncccc23)C[C@H](CN2Cc3cc(N4CCN(C)CC4)cc(F)c3C2)O1 [Example 69] for me?
[out] 7.09

[in] Can you look up the measured pIC50 of C[C@@H]1CN(c2ccc(C#N)c3ncccc23)C[C@H](CN2Cc3ccc(N4CC5(CCN5)C4)cc3C2)O1 [Example 55] for me?
[out] 7.08

[in] Can you look up the measured pIC50 of C[C@@H]1CN(c2ccc(C#N)c3ncccc23)C[C@H](CN2Cc3cc(N4CCNCC4)cnc3C2)O1 [Example 20] for me?
[out] 7.32

[in] Can you look up the measured pIC50 of C[C@@H]1CN(c2ccc3c(c2)CN(C[C@H]2CN(c4ccc(C#N)c5ncccc45)C[C@@H](C)O2)C3)CCN1 [Example 62] for me?
[out] 7.21

[in] Can you look up the measured pIC50 of C[C@@H]1CN(c2ccc(C#N)c3ncccc23)C[C@H](CN2Cc3ccc(N4CCNCC4)cc3C2)O1 [Example 21] for me?
[out] 7.26

[in] Can you look up the measured pIC50 of C[C@@H]1CN(c2ccc(C#N)c3ncccc23)C[C@H](CN2Cc3ccc(N4CCNC[C@H]4CO)cc3C2)O1 [Example 83] for me?
[out] 7.20

----------
Molecular target: hTLR7 (Homo sapiens)
Assay: HEK293-Blue-hTLR-7 cells assay (SEAP reporter, R848 stimulation)
Assay type: cell-based
Settings: HEK293-Blue-hTLR7 cells, R848, 20 hrs; 0.003 is the lowest tested concentration; read-out: HEK/hTLR7 IC50
Experimental: The following tests were carried out in order to determine the activity of the compounds of formula (I) or (Ia) in HEK293-Blue-hTLR-7/8/9 cells assay. HEK293-Blue-hTLR-7 cells assay: A stable HEK293-Blue-hTLR-7 cell line was purchased from InvivoGen (Cat.#: hkb-htlr7, San Diego, California, USA). These cells were originally designed for studying the stimulation of human TLR7 by monitoring the activation of NF-κB. […]
MEASURE: pIC50
# pIC50 is unitless: minus log10 of the molar concentration; print number only

Answered cases to consult:
COMPOUND	MEASURE	OBSERVED MEASUREMENT
COC(=O)C1CN(c2ccc3c(c2)CN(C[C@H]2CN(c4ccc(C#N)c5ncccc45)C[C@@H](C)O2)C3)CCN1 (stereo partly shown)	pIC50	7.25
C[C@@H]1CN(c2ccc(C#N)c3ncccc23)C[C@H](CN2CCc3nc(N4CCNCC4)ccc3C2)O1	pIC50	7.82
C[C@@H]1CN(c2ccc(C#N)c3ncccc23)C[C@H](CN2CCc3cc(N4CCNCC4)ccc3C2)O1	pIC50	7.96

Okay, next one:
[in] Which pIC50 is reported with hTLR7 (Homo sapiens) for this entry: C[C@@H]1CN(c2ccc(C#N)c3ncccc23)C[C@H](CN2Cc3ccc(N4CC5CCC(C4)N5)cc3C2)O1 ?
[out] 7.21
